Molecular target: T1, factor XIIIa (Homo sapiens, UniProt P00488)
T1 sequence (P00488 39-732 limits assumed): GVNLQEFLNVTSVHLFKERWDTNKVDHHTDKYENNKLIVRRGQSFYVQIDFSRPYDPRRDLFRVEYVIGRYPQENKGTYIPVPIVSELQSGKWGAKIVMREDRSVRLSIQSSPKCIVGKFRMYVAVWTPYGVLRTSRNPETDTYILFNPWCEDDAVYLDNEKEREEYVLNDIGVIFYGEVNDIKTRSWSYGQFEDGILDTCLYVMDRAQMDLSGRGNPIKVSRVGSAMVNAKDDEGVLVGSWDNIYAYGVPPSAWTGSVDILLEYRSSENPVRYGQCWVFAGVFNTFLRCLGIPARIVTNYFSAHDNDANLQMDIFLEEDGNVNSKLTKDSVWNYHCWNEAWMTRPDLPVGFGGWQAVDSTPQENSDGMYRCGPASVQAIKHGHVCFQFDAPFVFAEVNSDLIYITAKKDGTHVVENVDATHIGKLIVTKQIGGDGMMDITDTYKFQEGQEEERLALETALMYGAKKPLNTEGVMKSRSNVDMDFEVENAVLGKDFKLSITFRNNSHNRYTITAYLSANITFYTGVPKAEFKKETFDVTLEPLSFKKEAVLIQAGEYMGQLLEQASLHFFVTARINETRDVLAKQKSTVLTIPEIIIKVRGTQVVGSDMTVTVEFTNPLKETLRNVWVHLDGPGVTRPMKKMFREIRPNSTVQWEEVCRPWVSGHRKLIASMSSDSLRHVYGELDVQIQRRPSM
Assay: biochemical
Assay type: biochemical
Conditions: Table 2; final variant concentration 5.45 μM; recombinant tridegin polypeptide normalized to 100%
readout_name: Relative inhibitory effect (%)

1) K02A: modified tridegin, XnY mutation of SEQ ID No. 1, expressed in Escherichia coli (protein) MALLPCKEWHQGIPNPRCWCGADLECAQDQYCAFIPQCRPRSELIKPMDDIYQRPVEFPNLPLKPREE; 113
2) I45A: modified tridegin, XnY mutation of SEQ ID No. 1, expressed in Escherichia coli (protein) MKLLPCKEWHQGIPNPRCWCGADLECAQDQYCAFIPQCRPRSELAKPMDDIYQRPVEFPNLPLKPREE; 115
